target: BRD4 (BD1) (Homo sapiens, UniProt O60885); construct: with relatively long constructs also being possible, preferably amino acids 44-168; test: Binding assay BRD4/acetylated peptide H4 (TR-FRET protein-protein interaction assay)
pIC50: −log10 of the molar value.
measure: pIC50

(1) CNC(=O)N1N=C(c2ccc(Cl)cc2)c2ccc(N3CCN(C)CC3)cc2CC1C (racemic) [Example 236]
(2) CNC(=O)N1N=C(c2ccc(N3CCC3)cc2)c2cc(OC)c(OC)cc2CC1C (racemic) [Example 128]
(3) CNC(=O)N1N=C(c2ccc(-n3cncn3)cc2)c2cc(OC)c(OC)cc2CC1C (racemic) [Example 152]
Req: // sort entries: pIC50, high to low I would appreciate it if you listed the labels in the requested order.
Resp: 2, 3, 1
(2: 7.52, 3: 7.15, 1: 5.66)

---

target: BRD4 (BD1) (Homo sapiens); construct: with relatively long constructs also being possible, preferably amino acids 44-168; assay: Binding assay BRD4/acetylated peptide H4 (TR-FRET protein-protein interaction assay)
measure: IC50 (nM)

INSERT INTO measurements (compound, resultnumber) VALUES
  ('CNC(=O)N1N=C(c2ccc(-c3cnc(C)n3C)cc2)c2cc(OC)c(OC)cc2CC1C (racemic)', 110),
  ('CNC(=O)N1N=C(c2ccc(N3CCN(C)CC3=O)cc2)c2cc(OC)c(OC)cc2CC1C (racemic)', 300),
  ('CNC(=O)N1N=C(c2ccc(-c3cccc(S(N)(=O)=O)c3)cc2)c2cc(OC)c(OC)cc2CC1C (racemic)', 40);

(I) CNC(=O)N1N=C(c2ccc(Cl)cc2)c2cc(OCCCN3CCOCC3)ccc2CC1C (racemic)
(II) CCC1Cc2cc(OC)c(OC)cc2C(c2ccc(N3CCNCC3)cc2)=NN1C(=O)NC (racemic)
(III) COc1cc2c(cc1OC)C(c1ccc(-c3c(C)noc3C)cc1)=NN(C(C)=O)C(C)C2 (racemic)
(IV) CCC1Cc2cc(OC)c(OC)cc2C(c2ccc(N3CCCCC3=O)cc2)=NN1C(=O)NC (racemic)
Req: Please rank these compounds by IC50 in descending order. I would appreciate it if you listed the labels in the requested order.
Resp: IV, II, III, I
(IV: 6280 nM, II: 1230 nM, III: 330 nM, I: 130 nM)

(1) CNC(=O)N1N=C(c2ccc(-c3cccnc3C(F)(F)F)cc2)c2cc(OC)c(OC)cc2CC1C (racemic)
(2) CNC(=O)N1N=C(c2ccc(-c3sc(C)nc3C)cc2)c2cc(OC)c(OC)cc2C[C@H]1C (single isomer, unassigned)
(3) CNC(=O)N1N=C(c2ccc(N3CC(O)C3)cc2)c2cc(OC)c(OC)cc2CC1C (racemic)
Req: Please rank these compounds by IC50 in descending order. I would appreciate it if you listed the labels in the requested order.
Resp: 2, 1, 3

---

molecular target: BRD4 (BD1) (Homo sapiens, UniProt O60885); construct: with relatively long constructs also being possible, preferably amino acids 44-168; made in house; host or cells: E. coli; assay: Binding assay BRD4/acetylated peptide H4 (TR-FRET protein-protein interaction assay)
measure: IC50 (nM)

INSERT INTO measurements (molecule, measure, resultnumber) VALUES
  ('CNC(=O)N1N=C(c2ccc(-c3cncnc3)cc2)c2cc(OC)c(OC)cc2CC1C (racemic) [Example 111]', 'IC50', 80);

(a) COc1cc2c(cc1OC)C(c1ccc(N3CCN(C)CC3)cc1)=NN(C(C)=O)C(C)C2 (racemic) [Example 245]
(b) CC[C@H]1Cc2cc(OC)c(OC)cc2C(c2ccc(N3CCOCC3)cc2)=NN1C(=O)NC [Example 209]
Req: Looking only at measured IC50, which entry is lower, a or b ? Use the label to indicate which entry you chose.
Resp: b

---

biological target: BRD4 (BD1) (Homo sapiens, UniProt O60885); construct: with relatively long constructs also being possible, preferably amino acids 44-168; made in house; host or cells: E. coli; assay: Binding assay BRD4/acetylated peptide H4 (TR-FRET protein-protein interaction assay)
measure: IC50 (nM)

INSERT INTO measurements (compound, systemundertest, resultnumber) VALUES
  ('CNC(=O)N1N=C(c2ccc(-c3cncc(F)c3)cc2)c2cc(OC)c(OC)cc2CC1C (racemic)', 'BRD4 (BD1) (Homo sapiens, UniProt O60885)', 60);

(P) CCNC(=O)N1N=C(c2ccc(N3CCN(C)CC3)cc2)c2cc(OC)c(OC)cc2CC1C (racemic)
(Q) CNC(=O)N1N=C(c2ccc(-c3ccn[nH]3)cc2)c2cc(OC)ccc2C[C@@H]1C
Req: Looking only at measured IC50, which entry is lower, P or Q ? Use the label to indicate which entry you chose.
Resp: Q

---

target: BRD4 (BD1) (Homo sapiens, UniProt O60885); construct: with relatively long constructs also being possible, preferably amino acids 44-168; test: Binding assay BRD4/acetylated peptide H4 (TR-FRET protein-protein interaction assay)
measure: IC50 (nM)

Study these solved cases before continuing.
INSERT INTO assay_data (compound, systemundertest, measure, endpointunit, resultnumber) VALUES
  ('CNC(=O)N1N=C(c2ccc(-c3cnoc3)cc2)c2cc(OC)ccc2C[C@@H]1C', 'BRD4 (BD1) (Homo sapiens, UniProt O60885)', 'IC50', 'nM', 160),
  ('CCC1Cc2cc(OC)c(OC)cc2C(c2ccc(N3CCOCC3)cc2)=NN1C(=O)NC (racemic)', 'BRD4 (BD1) (Homo sapiens, UniProt O60885)', 'IC50', 'nM', 1100),
  ('CNC(=O)N1N=C(c2ccc(-c3cccnc3)cc2)c2cc(OC)c(OC)cc2CC1C (racemic)', 'BRD4 (BD1) (Homo sapiens, UniProt O60885)', 'IC50', 'nM', 40);

(I) CNC(=O)N1N=C(c2ccc(-n3ccc(-c4ccc(F)cc4)n3)cc2)c2cc(OC)c(OC)cc2C[C@@H]1C
(II) CNC(=O)N1N=C(c2ccc(-c3c(C)noc3C)cc2)c2cc(OC(F)(F)F)c(Cl)cc2CC1C (racemic)
Req: // which entry has the larger IC50 value, I or II ? Use the label to indicate which entry you chose.
Resp: II
